# Test system: Fibroblast
# MEASUREMENT PROTOCOL: Multiplex assay against human fibroblast
# Assay type: toxicity, cell-based
# CONDITION DETAILS: 24 h, 1 µM, compound concentration 1 uM, replicate 2
Kindly return yes if reported Population Tubulin-Different-Phenotype (%) is no lower than 40%; return no if it is lower.

{"MOLECULE": "NCCc1cn(S(=O)(=O)c2c(Cl)nc3sccn23)c2ccccc12.O=C(O)C(=O)O", "SYSTEM TESTED": "Fibroblast", "LABEL CLASS": "yes"}
{"MOLECULE": "CCCCC(=O)N(Cc1ccc(-c2ccccc2-c2nnn[nH]2)cc1)[C@H](C(=O)O)C(C)C", "SYSTEM TESTED": "Fibroblast", "LABEL CLASS": "no"}
{"MOLECULE": "Cc1sc2c(c1C)C(c1ccc(Cl)cc1)=N[C@@H](CC(=O)NCCCCCCCCNC(=O)COc1cccc3c1C(=O)N(C1CCC(=O)NC1=O)C3=O)c1nnc(C)n1-2 (some centres undefined)", "SYSTEM TESTED": "Fibroblast", "LABEL CLASS": "yes"}

[Q] Kindly determine if Population Tubulin-Different-Phenotype (%) recorded for `Cc1noc(-c2ccc(-c3ccc(CC(=O)O)cc3)cc2)c1NC(=O)O[C@H](C)c1ccccc1Cl` is above or exactly 40%.
[A] no

[Q] Kindly determine if Population Tubulin-Different-Phenotype (%) recorded for `CC(/C=C1\SC(=S)N(CCCC(=O)Nc2ccc(C(=O)O)c(O)c2)C1=O)=C\c1ccccc1` is above or exactly 40%.
[A] yes

[Q] Kindly determine if Population Tubulin-Different-Phenotype (%) recorded for `Cc1cccc(NC(=O)CN2CCC(c3ccccn3)CC2)c1.Cl.Cl` is above or exactly 40%.
[A] no

[Q] Kindly determine if Population Tubulin-Different-Phenotype (%) recorded for `COc1cccc2c1c(NS(=O)(=O)c1ccc(Cl)s1)nn2Cc1cccc(CNC(=O)C(C)(C)O)c1` is above or exactly 40%.
[A] no
